- System tested: KDM6B (Homo sapiens, UniProt O15054)
- Sequence (O15054 whole entry): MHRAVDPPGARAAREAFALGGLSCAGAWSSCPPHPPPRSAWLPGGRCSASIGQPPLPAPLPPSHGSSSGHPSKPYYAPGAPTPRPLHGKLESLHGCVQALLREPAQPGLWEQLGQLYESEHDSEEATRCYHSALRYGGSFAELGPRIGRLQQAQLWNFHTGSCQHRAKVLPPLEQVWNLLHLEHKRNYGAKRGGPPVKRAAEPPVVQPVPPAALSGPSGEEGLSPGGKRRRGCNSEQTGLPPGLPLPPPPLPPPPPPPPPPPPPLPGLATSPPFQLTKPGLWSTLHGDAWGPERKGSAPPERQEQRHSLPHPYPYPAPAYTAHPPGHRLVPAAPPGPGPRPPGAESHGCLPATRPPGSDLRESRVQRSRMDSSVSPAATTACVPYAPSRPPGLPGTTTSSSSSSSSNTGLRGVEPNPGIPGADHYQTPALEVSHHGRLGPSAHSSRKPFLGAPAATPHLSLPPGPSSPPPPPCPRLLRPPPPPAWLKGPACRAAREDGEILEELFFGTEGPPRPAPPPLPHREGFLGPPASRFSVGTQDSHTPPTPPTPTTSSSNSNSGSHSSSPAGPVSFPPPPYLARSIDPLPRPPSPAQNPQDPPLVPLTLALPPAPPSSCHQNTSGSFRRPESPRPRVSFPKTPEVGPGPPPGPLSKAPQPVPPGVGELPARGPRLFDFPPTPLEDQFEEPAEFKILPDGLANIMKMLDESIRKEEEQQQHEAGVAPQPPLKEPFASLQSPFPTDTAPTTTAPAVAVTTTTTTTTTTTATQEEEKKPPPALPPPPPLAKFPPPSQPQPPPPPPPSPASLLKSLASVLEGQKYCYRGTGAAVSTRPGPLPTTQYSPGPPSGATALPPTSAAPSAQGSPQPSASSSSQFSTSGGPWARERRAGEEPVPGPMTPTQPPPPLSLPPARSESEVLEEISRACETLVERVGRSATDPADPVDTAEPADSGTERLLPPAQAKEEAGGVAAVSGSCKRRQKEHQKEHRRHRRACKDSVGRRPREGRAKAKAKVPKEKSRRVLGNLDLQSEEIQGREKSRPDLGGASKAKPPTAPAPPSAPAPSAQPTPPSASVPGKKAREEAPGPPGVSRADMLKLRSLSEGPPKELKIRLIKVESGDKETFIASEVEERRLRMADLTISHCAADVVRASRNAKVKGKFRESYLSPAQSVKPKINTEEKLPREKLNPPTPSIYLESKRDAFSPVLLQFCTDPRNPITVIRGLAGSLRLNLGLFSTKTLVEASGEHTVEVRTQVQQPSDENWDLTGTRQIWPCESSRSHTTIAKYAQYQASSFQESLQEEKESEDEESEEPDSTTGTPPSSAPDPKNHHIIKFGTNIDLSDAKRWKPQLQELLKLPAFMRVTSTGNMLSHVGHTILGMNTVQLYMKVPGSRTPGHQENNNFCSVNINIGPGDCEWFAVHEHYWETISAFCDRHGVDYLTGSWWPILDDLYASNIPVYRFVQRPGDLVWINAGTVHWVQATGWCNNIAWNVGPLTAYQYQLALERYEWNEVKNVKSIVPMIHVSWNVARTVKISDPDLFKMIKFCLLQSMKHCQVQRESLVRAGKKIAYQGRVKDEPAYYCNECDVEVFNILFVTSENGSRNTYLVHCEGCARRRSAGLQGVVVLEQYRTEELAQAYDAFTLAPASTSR
- Experiment notes: KDM demethylase inhibition (IC50)
- Type: biochemical
Observable: IC50

**Q:** Could you share which IC50 value was measured for CN(c1ccccc1)c1ccc2c(c1)CCC[C@H]2CNc1cnccc1C(=O)O [Compound I] ?
**A:** > 10 µM

###

- System tested: KDM2A (Homo sapiens)
- Sequence (Q9Y2K7 1-1162): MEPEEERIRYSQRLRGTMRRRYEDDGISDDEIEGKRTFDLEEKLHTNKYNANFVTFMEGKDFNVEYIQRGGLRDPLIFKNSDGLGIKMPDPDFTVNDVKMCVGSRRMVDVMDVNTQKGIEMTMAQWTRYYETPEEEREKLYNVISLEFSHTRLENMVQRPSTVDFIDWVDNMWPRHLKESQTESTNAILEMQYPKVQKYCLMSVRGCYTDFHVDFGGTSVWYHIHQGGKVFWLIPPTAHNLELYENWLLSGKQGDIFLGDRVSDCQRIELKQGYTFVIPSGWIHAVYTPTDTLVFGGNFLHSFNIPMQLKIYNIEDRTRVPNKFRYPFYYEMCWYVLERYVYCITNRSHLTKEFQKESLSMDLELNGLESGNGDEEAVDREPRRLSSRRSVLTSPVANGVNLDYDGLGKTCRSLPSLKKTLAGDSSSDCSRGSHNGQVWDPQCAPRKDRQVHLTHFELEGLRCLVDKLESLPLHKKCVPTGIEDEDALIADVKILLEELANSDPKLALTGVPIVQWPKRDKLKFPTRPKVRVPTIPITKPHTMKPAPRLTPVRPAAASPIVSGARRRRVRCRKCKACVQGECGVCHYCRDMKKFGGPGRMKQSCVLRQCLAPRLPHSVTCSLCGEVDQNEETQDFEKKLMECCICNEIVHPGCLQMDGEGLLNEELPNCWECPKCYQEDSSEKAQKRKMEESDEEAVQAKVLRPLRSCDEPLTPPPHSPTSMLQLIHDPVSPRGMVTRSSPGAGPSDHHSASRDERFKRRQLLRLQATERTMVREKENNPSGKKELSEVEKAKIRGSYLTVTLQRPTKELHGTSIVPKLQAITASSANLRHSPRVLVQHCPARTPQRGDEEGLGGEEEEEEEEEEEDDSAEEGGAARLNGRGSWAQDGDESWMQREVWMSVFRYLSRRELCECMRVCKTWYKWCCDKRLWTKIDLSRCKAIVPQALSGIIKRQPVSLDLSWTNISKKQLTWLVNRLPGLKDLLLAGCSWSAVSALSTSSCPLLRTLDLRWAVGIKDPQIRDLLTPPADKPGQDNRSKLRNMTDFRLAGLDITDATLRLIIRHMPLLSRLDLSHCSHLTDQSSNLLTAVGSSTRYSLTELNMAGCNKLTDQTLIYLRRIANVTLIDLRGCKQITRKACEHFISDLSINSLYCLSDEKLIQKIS
Observable: IC50

**Q:** Could you share which IC50 value was measured for `CN(c1ccccc1)c1ccc2c(c1)CCC[C@H]2CNc1cnccc1C(=O)O` ?
**A:** > 10 µM

###

- System tested: UniProt O75164
- Sequence (O75164 whole entry): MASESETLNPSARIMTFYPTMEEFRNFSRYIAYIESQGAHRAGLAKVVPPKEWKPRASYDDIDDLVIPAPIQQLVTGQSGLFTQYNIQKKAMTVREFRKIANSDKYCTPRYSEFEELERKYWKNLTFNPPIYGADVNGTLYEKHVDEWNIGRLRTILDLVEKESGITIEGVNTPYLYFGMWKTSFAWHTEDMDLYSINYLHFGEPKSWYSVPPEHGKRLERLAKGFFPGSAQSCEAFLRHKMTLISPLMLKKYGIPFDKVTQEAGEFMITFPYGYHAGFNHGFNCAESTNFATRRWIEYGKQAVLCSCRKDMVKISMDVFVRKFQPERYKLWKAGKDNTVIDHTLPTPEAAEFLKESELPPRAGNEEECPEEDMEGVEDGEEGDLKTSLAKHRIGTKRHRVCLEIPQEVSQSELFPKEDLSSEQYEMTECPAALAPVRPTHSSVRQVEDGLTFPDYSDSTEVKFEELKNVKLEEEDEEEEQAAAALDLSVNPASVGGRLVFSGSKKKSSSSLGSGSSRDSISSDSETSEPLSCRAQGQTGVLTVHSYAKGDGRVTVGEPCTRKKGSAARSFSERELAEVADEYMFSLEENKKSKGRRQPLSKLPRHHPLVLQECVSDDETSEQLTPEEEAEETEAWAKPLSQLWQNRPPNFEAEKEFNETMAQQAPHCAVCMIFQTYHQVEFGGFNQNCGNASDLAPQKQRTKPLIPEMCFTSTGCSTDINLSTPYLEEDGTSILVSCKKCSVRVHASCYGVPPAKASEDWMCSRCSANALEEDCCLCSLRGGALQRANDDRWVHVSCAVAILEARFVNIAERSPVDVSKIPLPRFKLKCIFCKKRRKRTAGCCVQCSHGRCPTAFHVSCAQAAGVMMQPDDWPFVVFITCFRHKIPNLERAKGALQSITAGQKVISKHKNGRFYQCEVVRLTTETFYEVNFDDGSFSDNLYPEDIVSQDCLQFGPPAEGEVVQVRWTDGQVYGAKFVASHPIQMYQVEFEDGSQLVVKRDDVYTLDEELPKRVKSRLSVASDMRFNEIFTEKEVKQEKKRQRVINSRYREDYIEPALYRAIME
- Experiment notes: KDM demethylase inhibition (IC50)
- Format: biochemical
- Test conditions: read-out: IC50, demethylase activity
pIC50: −log10 of the molar value.
Observable: pIC50

**Q:** Could you share which pIC50 value was measured for CN(c1ccccc1)c1ccc2c(c1)CCC[C@H]2CNc1cnccc1C(=O)O [Compound I] ?
**A:** > 6.98

###

- Experiment notes: Pharmacokinetic study iv/po
- Format: in vivo
- Test conditions: plasma, 5 mg/kg; Dose iv/po 5/10 mg/kg; read-out: Vz (mL/kg), apparent volume of distribution during terminal phase
Observable: Vd (mL/kg)
One number for each entry, in mL/kg.

**Q:** Could you share which Vd value was measured for `CN(c1ccccc1)c1ccc2c(c1)CCC[C@H]2CNc1cnccc1C(=O)O` ?
**A:** 666
